Tested on: PLK4;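 further: KINOMEscan kinase panel screen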
Conditions: concentration: 1 μM, replicates: in singlicate; n = 1
endpointName: %Inh (%)
Write the value in % as a bare number.

Consider the following illustrative entries.
O=c1cc(N2CCOCC2)nc2n(Cc3ccc(F)c(Cl)c3)ccn12 [GSK2297099] :: 0
COC(=O)c1c(-c2ccccc2)c2cc(C)ccc2c(=O)n1Cc1ccccc1 :: 0
Cc1cccc(-c2cc(-c3c[nH]nc3-c3ccccn3)ccn2)c1 [GW679395] :: 0

Look at this compound and give its reported %Inh. Cc1nnc(-c2ccc(C)c(-c3ccc(C(=O)O)cc3)c2)o1 [GW608005] 0

Look at this compound and give its reported %Inh. Cc1c(Cn2c(C)nn3c(=O)cc(N4CCO[C@H](C)C4)nc23)cccc1C(F)(F)F [GSK2373690] 0
